Reference for the values: patent US12071404B2

# MEASURED_TARGET: GPR17 (Homo sapiens, UniProt Q13304)
# Sequence (Q13304 whole entry): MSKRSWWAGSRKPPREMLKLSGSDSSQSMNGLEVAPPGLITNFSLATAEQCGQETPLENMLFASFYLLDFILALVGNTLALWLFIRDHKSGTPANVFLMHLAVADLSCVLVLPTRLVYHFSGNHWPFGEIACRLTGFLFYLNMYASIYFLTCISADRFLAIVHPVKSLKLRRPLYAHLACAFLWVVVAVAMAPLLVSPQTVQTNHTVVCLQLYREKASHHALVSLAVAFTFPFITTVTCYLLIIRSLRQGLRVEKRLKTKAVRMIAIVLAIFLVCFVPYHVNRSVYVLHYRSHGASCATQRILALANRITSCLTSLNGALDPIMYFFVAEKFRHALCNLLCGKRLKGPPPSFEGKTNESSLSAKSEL
# EXPERIMENT_DESCRIPTION: Calcium mobilization functional assay (GPR17 Ca2+ assay)
# Format: cell-based
# Set-up: host or cells: Flp-In T-REx CHO
# TEST_CONTEXT: CHO hGPR17 cells, inhibition of 50 nM MDL29,951, Calcium 5 dye, FLIPR; read-out: Ca2+ assay pIC50 (converted)
MEASURED_METRIC: IC50

Sample answers from the record:
| COMPOUND | IC50 |
| --- | --- |
| O=S(=O)(Nc1ccc(F)cn1)c1c[nH]c2cc(Cl)ccc12 [Compound I-62] | > 31.6 nM |
| O=S(=O)(Nc1cccc2nsnc12)c1c[nH]c2nc(Cl)ccc12 [Compound I-93] | 3.16 to 31.6 nM |
| O=S(=O)(Nc1cc(F)c(Cl)cc1F)c1c[nH]c2c(Cl)c(Br)ccc12 [Compound I-347] | 3.16 to 31.6 nM |

In plain terms, O=S(=O)(Nc1cc(F)ccc1F)c1c[nH]c2cc3c(cc12)OCO3 [Compound I-30] has a documented IC50 of > 31.6 nM

In plain terms, COc1ccc2c(S(=O)(=O)Nc3cccc4nsnc34)c[nH]c2c1 [Compound I-64] has a documented IC50 of > 31.6 nM

In plain terms, C=Cc1cc(F)c(NS(=O)(=O)c2c[nH]c3cc(Cl)ccc23)nc1F [Compound I-337] has a documented IC50 of 3.16 to 31.6 nM

In plain terms, O=S(=O)(Nc1cccc2n[se]nc12)c1c[nH]c2cc(Cl)ccc12 [Compound I-142] has a documented IC50 of < 3.16 nM
